experiment: Primary qHTS for inhibitors of nuclear receptor binding SET domain protein 2 (NSD2) in an RCH-ACV wild type WT cells (2C) (AID 1645877); details: RCH-ACV (leukaemia line) NSD2 WT (2C) viability, CellTiter-Glo, 72 h; series mostly up to 44.9 µM; also: nearly all actives have a fitted effect of over 70% in size
Inconclusive results are not listed. Activity calls are given as the source filed them. Calls follow the shape of the dose curve; as a rule, active = well fitted inhibition curve with a large enough effect; inconclusive = small, poorly fitted or top-dose-only effect; inactive = no such curve, though single readings can be large or run the other way.
Would you mind answering with one of these outcomes? active, inactive

>  <MOLECULE>
c1ccc(Cn2c(-c3ccc(OCC(C4CCNCC4)n4c(-c5ccccc5)nc5ccccc54)cc3)nc3ccccc32)cc1 (stereo not given)

>  <CLASSIFICATION>
active

$$$$
>  <MOLECULE>
COC(=O)C#Cc1ccc([N+](=O)[O-])cc1

>  <CLASSIFICATION>
active

$$$$
>  <MOLECULE>
Nc1ccn([C@H]2O[C@@H](CO)[C@H](O)[C@H]2O)c(=O)n1

>  <CLASSIFICATION>
active

$$$$
>  <MOLECULE>
Cc1ccc(NS(=O)(=O)c2cc3c(cc2F)NC(=O)CC3)cc1Cl

>  <CLASSIFICATION>
inactive

$$$$
>  <MOLECULE>
CC(Sc1nc2c(cnn2-c2cccc(Cl)c2)c(=O)[nH]1)C(N)=O (stereo not given)

>  <CLASSIFICATION>
inactive

$$$$

Challenge: Just curious, what result did `C=C(C)[C@@H]1CCC2=CC(=O)C[C@@H](C)[C@]2(C)C1` get here?
Response given: inactive

Challenge: Just curious, what result did `Fc1ccccc1CNCc1ccc(-c2ccnc3[nH]ccc23)cc1` get here?
Response given: active
